Molecular target: Cytochrome P450 3A4 (Homo sapiens)
Sequence (P08684 whole entry): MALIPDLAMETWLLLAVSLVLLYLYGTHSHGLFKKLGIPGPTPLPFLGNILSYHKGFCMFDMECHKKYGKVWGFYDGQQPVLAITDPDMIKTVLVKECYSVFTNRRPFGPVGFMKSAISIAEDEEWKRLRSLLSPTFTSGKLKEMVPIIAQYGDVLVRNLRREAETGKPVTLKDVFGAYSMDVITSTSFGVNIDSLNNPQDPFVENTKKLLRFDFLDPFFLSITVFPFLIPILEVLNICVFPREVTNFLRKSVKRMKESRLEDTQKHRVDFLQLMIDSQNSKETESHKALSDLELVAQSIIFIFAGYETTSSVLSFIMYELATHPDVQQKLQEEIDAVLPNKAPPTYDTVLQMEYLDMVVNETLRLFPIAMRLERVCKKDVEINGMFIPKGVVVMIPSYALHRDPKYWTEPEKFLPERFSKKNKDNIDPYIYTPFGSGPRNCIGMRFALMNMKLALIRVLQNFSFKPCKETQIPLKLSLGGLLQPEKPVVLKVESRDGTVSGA
Test: Inhibition of human CYP3A4 expressed in baculosomes at 1 uM using BOMCC as substrate preincubated for 20 mins followed by substrate and NADP+ addition and measured after 30 mins by fluorescence assay
Format: ADME
Settings: recombinant enzyme, 0.5 h
experimental.readout: inhibition (INH)

O=C(CN1C(=O)c2ccccc2S1(=O)=O)Nc1ccc(O)cc1 :: Not Active
O=C(CN1C(=O)c2ccccc2S1(=O)=O)Nc1ccc(OC(=O)CCO[N+](=O)[O-])cc1 :: Not Active
O=C(CN1C(=O)c2ccccc2S1(=O)=O)Nc1ccc(OC(=O)CCCO[N+](=O)[O-])cc1 :: Not Active

###

Tested on: HepaRG
Test: Hepatotoxicity in human HepaRG cells assessed as GSH depletion at 500 uM measured over 12 hrs by ThiolTracker Violet dye-based fluorescence assay
Assay type: toxicity, cell-based
experimental.readout: Activity

O=C(CN1C(=O)c2ccccc2S1(=O)=O)Nc1ccc(OC(=O)CCCO[N+](=O)[O-])cc1 :: Non-Toxic
O=C(CN1C(=O)c2ccccc2S1(=O)=O)Nc1ccc(OC(=O)CCO[N+](=O)[O-])cc1 :: Non-Toxic
CC(=O)Nc1ccc(O)cc1 :: Toxic
O=C(CN1C(=O)c2ccccc2S1(=O)=O)Nc1ccc(O)cc1 :: Toxic

###

System: HepaRG
Test: Hepatotoxicity in human HepaRG cells assessed as necrotic cell death at 500 uM measured over 12 hrs by LDH assay
Assay type: toxicity, cell-based
experimental.readout: Activity

CC(=O)Nc1ccc(O)cc1 [ACETAMINOPHEN] :: Toxic
O=C(CN1C(=O)c2ccccc2S1(=O)=O)Nc1ccc(OC(=O)CCCO[N+](=O)[O-])cc1 :: Toxic
O=C(CN1C(=O)c2ccccc2S1(=O)=O)Nc1ccc(OC(=O)CCO[N+](=O)[O-])cc1 :: Non-Toxic
O=C(CN1C(=O)c2ccccc2S1(=O)=O)Nc1ccc(O)cc1 :: Non-Toxic

###

System: HepaRG
Assay: Hepatotoxicity in human HepaRG cells assessed as GSH depletion at 500 uM after 3 to 12 hrs by ThiolTracker Violet dye-based fluorescence assay
Assay type: toxicity, cell-based
experimental.readout: Activity

O=C(CN1C(=O)c2ccccc2S1(=O)=O)Nc1ccc(OC(=O)CCCO[N+](=O)[O-])cc1 :: Non-Toxic
O=C(CN1C(=O)c2ccccc2S1(=O)=O)Nc1ccc(OC(=O)CCO[N+](=O)[O-])cc1 :: Non-Toxic
CC(=O)Nc1ccc(O)cc1 [ACETAMINOPHEN] :: Toxic
O=C(CN1C(=O)c2ccccc2S1(=O)=O)Nc1ccc(O)cc1 :: Toxic

###

Molecular target: UniProtKB P05181
Sequence (P05181 whole entry): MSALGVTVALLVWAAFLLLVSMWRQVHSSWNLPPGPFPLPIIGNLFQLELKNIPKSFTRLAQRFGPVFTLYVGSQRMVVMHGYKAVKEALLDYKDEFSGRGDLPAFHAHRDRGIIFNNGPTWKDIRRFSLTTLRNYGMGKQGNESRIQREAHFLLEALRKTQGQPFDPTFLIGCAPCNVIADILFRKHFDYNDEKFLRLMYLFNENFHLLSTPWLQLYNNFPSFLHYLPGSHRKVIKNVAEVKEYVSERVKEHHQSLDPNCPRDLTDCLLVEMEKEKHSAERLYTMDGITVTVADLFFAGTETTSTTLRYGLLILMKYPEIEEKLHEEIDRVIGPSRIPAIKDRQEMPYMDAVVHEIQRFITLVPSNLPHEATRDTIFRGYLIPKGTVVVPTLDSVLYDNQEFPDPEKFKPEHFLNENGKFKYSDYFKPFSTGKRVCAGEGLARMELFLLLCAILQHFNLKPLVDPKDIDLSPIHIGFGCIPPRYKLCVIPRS
Assay: Inhibition of human CYP2E1 expressed in baculosomes at 1 uM using EOMCC as substrate preincubated for 20 mins followed by substrate and NADP+ addition and measured after 30 mins by fluorescence assay
Assay type: ADME
Conditions: recombinant enzyme, 0.5 h
experimental.readout: inhibition (INH)

O=C(CN1C(=O)c2ccccc2S1(=O)=O)Nc1ccc(OC(=O)CCO[N+](=O)[O-])cc1 :: Not Active
O=C(CN1C(=O)c2ccccc2S1(=O)=O)Nc1ccc(O)cc1 :: Not Active
O=C(CN1C(=O)c2ccccc2S1(=O)=O)Nc1ccc(OC(=O)CCCO[N+](=O)[O-])cc1 :: Not Active

###

Test system: HepaRG
Assay: Hepatotoxicity in human HepaRG cells assessed as GSH depletion at 1000 uM after 12 hrs by ThiolTracker Violet dye-based fluorescence assay
Assay type: toxicity, cell-based
experimental.readout: Activity

O=C(CN1C(=O)c2ccccc2S1(=O)=O)Nc1ccc(O)cc1 :: Non-Toxic
O=C(CN1C(=O)c2ccccc2S1(=O)=O)Nc1ccc(OC(=O)CCCO[N+](=O)[O-])cc1 :: Non-Toxic
CC(=O)Nc1ccc(O)cc1 :: Toxic
O=C(CN1C(=O)c2ccccc2S1(=O)=O)Nc1ccc(OC(=O)CCO[N+](=O)[O-])cc1 :: Non-Toxic
